- ASSAY_SYSTEM: FAAH (Mus musculus, UniProt O08914)
- Construct: A fragment of liver, left lung lobe and brain without cerebellum were removed; from tissue; host or cells: male NMRI mice; brain (without cerebellum) and liver homogenates
- Sequence (O08914 1-579): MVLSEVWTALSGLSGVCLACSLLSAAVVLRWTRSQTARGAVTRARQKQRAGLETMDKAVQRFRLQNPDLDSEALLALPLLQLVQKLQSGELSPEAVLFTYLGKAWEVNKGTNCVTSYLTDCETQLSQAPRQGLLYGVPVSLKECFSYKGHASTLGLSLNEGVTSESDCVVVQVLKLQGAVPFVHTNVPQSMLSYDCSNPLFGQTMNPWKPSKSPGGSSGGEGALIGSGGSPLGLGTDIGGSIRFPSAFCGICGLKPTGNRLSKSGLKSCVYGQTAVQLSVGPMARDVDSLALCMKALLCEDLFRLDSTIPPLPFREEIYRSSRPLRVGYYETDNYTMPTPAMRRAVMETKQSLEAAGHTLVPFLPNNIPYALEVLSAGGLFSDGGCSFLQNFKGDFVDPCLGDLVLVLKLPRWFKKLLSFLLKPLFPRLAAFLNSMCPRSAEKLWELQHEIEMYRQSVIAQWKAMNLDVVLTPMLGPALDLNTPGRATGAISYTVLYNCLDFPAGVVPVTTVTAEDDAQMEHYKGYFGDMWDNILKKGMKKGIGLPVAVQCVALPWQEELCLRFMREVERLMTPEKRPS
- ASSAY_NAME: In vivo FAAH inhibition after oral dosing, remaining activity in brain homogenate (BRh, central nervous tissue)
- Design: species or system NMRI mice
- CONDITION_DESCRIPTION: brain homogenate, 3 mg/kg oral, 8 h; low value = strong inhibitor
MEASUREMENT_TYPE: In Vivo BRh 3 mg · kg · 8 h (remaining FAAH activity)

Dear colleague, could you send me In Vivo BRh 3 mg · kg · 8 h (remaining FAAH activity) for each of the items below? Thanks.
1. CN(C(=O)n1cnc(-c2ccc(-c3noc(=O)[nH]3)cc2)c1)C1CCCCC1
2. CCCN1CCC(N(C)C(=O)n2cnc(-c3cccc(OC)c3)c2)CC1
3. CN(C(=O)n1cnc(-c2ccccc2)c1)C1CCNCC1.Cl
4. Br.CCN1CCC(N(C)C(=O)n2cnc(-c3ccc(F)c(O)c3)c2)CC1
5. CCN1CCC(N(C)C(=O)n2cnc(-c3ccc(OC)c(F)c3)c2)CC1
6. CCCN1CCC(N(C)C(=O)n2cnc(-c3ccc(O)c(C(N)=O)c3)c2)CC1
7. CN(C(=O)n1cnc(-c2cccc(-c3cccc(C(N)=O)c3)c2)c1)C1CCN(Cc2ccccc2)CC1

Result:
1. 85.2 % of control
2. 21.4 % of control
3. 112.5 % of control
4. 82.2 % of control
5. 78.8 % of control
6. 102.2 % of control
7. 94.3 % of control

I have 8 compounds here; please give me In Vivo BRh 3 mg · kg · 8 h (remaining FAAH activity) for each one.
1. COc1ccc(-c2cn(C(=O)N(C)C3CCNCC3)cn2)cc1
2. CCN1CCC(N(C)C(=O)n2cnc(-c3ccc(O)c(F)c3)c2)CC1
3. CN(C(=O)n1cnc(-c2cccc(C(=O)NO)c2)c1)[C@H]1CC[C@H](O)CC1
4. CN(C(=O)n1cnc(-c2ccc(F)c(O)c2)c1)C1CCOCC1
5. CN(C(=O)n1cnc(-c2ccc(O)c(C(N)=O)c2)c1)C1CCCCC1
6. CN(C(=O)n1cnc(-c2ccc3oc(=O)[nH]c3c2)c1)C1CCCC1
7. CN(C(=O)n1cnc(-c2ccc(O)c(F)c2)c1)C1CCOCC1
8. CCCN1CCC(N(C)C(=O)n2cnc(-c3cccc(C(=O)NO)c3)c2)CC1

Result:
1. 108.5 % of control
2. 74.6 % of control
3. 88.5 % of control
4. 75.1 % of control
5. 120.6 % of control
6. 37.6 % of control
7. 2.1 % of control
8. 90.2 % of control

Give me In Vivo BRh 3 mg · kg · 8 h (remaining FAAH activity) for each of these compounds, listed below.
1. CN(C(=O)n1cnc(-c2ccc(S(C)(=O)=O)cc2)c1)C1CCN(Cc2ccccc2)CC1
2. CCN1CCC(N(C)C(=O)n2cnc(-c3cccc(OC)c3)c2)CC1

Result:
1: 87.8 % of control; 2: 50.2 % of control
